Known Kinact/Kl of a selection of compounds
Molecular target: Human Polθ polymerase domain (aa1820-2590) (Homo sapiens, UniProt O75417)
Construct: Human Polθ polymerase domain (aa1820-2590) was expressed in E. coli; made in house; host or cells: E. coli
Assay: Polθ Polymerase Domain Kinact/KI Assay (PicoGreen)
Assay type: biochemical
Details: 0.8 nM Polθ, 100 nM DNA substrate, kobs vs [I] fit for 2-step covalent inhibitor
Procedure: Polθ Polymerase Domain Kinact/KI Assay A PicoGreen assay was used to measure the Kinact and KI values of covalent compounds that inhibit the activity of Polθ in vitro. Human Polθ polymerase domain (aa1820-2590) was expressed in E. coli, purified, aliquoted and stored at −80° C. until required. Polθ substrate was generated from a 1.2:1 mix of DNA II Short to DNA II Long to give a final concentration of […] substrate in annealing buffer (20 mM Tris pH 7.5, 50 mM NaCl). […]
Enter the number, and then the unit.

Previously resolved entries follow.
May I ask what Kinact/Kl has been recorded for `C=C(CN(C)C)C(=O)Nc1ccc(CN2C[C@H]3CC(=O)N(c4cc(C(F)(F)F)cc(C)n4)[C@@H]3C(=O)N(C)c3cccc(C)c32)cc1` ?
530000 M⁻¹ s⁻¹

Quick one: Kinact/Kl for C=CC(=O)N1Cc2nc(CN3C[C@H]4CC(=O)N(c5cc(C(F)(F)F)cc(C)n5)[C@@H]4C(=O)N(C)c4cccc(Cl)c43)cn2CC1C(F)F (mixture of isomers) [Example 243a] ?
1.03e+06 M⁻¹ s⁻¹

Query: Kinact/Kl; subject: C=CC(=O)N1Cc2cc(CN3C[C@H]4CC(=O)N(c5cc(C(F)(F)F)cc(C)n5)[C@@H]4C(=O)N(C)c4cccc(C)c43)cnc2[C@@H]1CC#N (racemic) [Example 321a]
1.57e+06 M⁻¹ s⁻¹

Report Kinact/Kl for C=CC(=O)N1CC(N2CCCC(CN3C[C@H]4CC(=O)N(c5cc(C(F)(F)F)cc(C)n5)[C@@H]4C(=O)N(C)c4cccc(F)c43)C2)C1 (single isomer, unassigned) [Example 225a] please.
320000 M⁻¹ s⁻¹

Proceeding to the next compound to report its Kinact/Kl.
Please report the recorded Kinact/Kl for `Cc1cc(C(F)(F)F)cc(N2C(=O)C[C@@H]3CN(CCCOC4CN(C(=O)/C=C/CN(C)C)C4)c4c(C)cccc4N(C)C(=O)[C@H]32)n1` .
2.69e+06 M⁻¹ s⁻¹

---

target: Human Polθ polymerase domain (aa1820-2590) (Homo sapiens); construct: Human Polθ polymerase domain (aa1820-2590) was expressed in E. coli; made in house; host or cells: E. coli; experiment: Polθ Polymerase Domain Kinact/KI Assay (PicoGreen); assay type: biochemical; settings: 0.8 nM Polθ, 100 nM DNA substrate, kobs vs [I] fit for 2-step covalent inhibitor
Here the recorded Kinact/Kl is given for each entry.
Give just the numeric value; M⁻¹ s⁻¹ need not be written.

Can you share its Kinact/Kl? I mean this molecule: C=CC(=O)N1CCN(CCCN2C[C@H]3CC(=O)N(c4cc(C(F)(F)F)cc(C)n4)[C@@H]3C(=O)N(C)c3cccc(Cl)c32)CC1 [Example 266]
590000

Fill in the blank: the reported Kinact/Kl of C=CC(=O)N1CCN(CCCN2C[C@H]3CC(=O)N(c4cc(C(F)(F)F)cc(C)n4)[C@@H]3C(=O)N(C)c3cccc(C)c32)CC1C(F)(F)F (mixture of isomers) [Example 265a] is ____.
3.32e+06

Others:
Give the measured Kinact/Kl of C=C(CN(C)C)C(=O)N[C@@H]1CCn2cc(CN3C[C@H]4CC(=O)N(c5cc(C(F)(F)F)cc(C)n5)[C@@H]4C(=O)N(C)c4cccc(C)c43)nc2C1 (racemic) [Example 330b] .
1.15e+06

Look at this molecule and give its reported Kinact/Kl. C=CC(=O)N1CC2(C1)N[C@H](C)CN(CCN1C[C@H]3CC(=O)N(c4cc(C(F)(F)F)cc(C)n4)[C@@H]3C(=O)N(C)c3cccc(F)c31)C2C (mixture of isomers) [Example 37b]
580000

What Kinact/Kl value was documented for this molecule, C=CC(=O)N1Cc2nc(CN3C[C@H]4CC(=O)N(c5cc(C(F)(F)F)cc(C)n5)[C@@H]4C(=O)N(C)c4cccc(C)c43)ccc2[C@H]1CC#N (racemic) [Example 319a] ?
2.17e+06

---

molecular target: Human Polθ polymerase domain (aa1820-2590) (Homo sapiens); construct: Human Polθ polymerase domain (aa1820-2590) was expressed in E. coli; made in house; host or cells: E. coli; test: Polθ Polymerase Domain Kinact/KI Assay (PicoGreen); assay type: biochemical; details: 0.8 nM Polθ, 100 nM DNA substrate, kobs vs [I] fit for 2-step covalent inhibitor
Measurement kind: Kinact/Kl
Write the numeric value and follow it with the unit.

Reported Kinact/Kl, compound C=CC(=O)N1CC2(CN(CCN3C[C@H]4CC(=O)N(c5cc(C(F)(F)F)cc(C)n5)[C@@H]4C(=O)N(C)c4cccc(F)c43)CCN2)C1 [Example 30] : ____
690000 M⁻¹ s⁻¹

Kinact/Kl lookup needed for C=C(CN(C)C)C(=O)N1CC(c2ccc(CN3C[C@H]4CC(=O)N(c5cc(C(F)(F)F)cc(C)n5)[C@@H]4C(=O)N(C)c4cccc(C)c43)cc2)C1 [Example 186] , thanks.
3.23e+06 M⁻¹ s⁻¹

Kinact/Kl for C=CC(=O)N1CC[C@@H]1c1nnc(CN2C[C@H]3CC(=O)N(c4cc(C(F)(F)F)cc(C)n4)[C@@H]3C(=O)N(C)c3cccc(C)c32)o1 [Example 274] ?
470000 M⁻¹ s⁻¹

---

Biological target: Human Polθ polymerase domain (aa1820-2590) (Homo sapiens)
Construct: Human Polθ polymerase domain (aa1820-2590) was expressed in E. coli; made in house; host or cells: E. coli
Sequence (O75417 1820-2590): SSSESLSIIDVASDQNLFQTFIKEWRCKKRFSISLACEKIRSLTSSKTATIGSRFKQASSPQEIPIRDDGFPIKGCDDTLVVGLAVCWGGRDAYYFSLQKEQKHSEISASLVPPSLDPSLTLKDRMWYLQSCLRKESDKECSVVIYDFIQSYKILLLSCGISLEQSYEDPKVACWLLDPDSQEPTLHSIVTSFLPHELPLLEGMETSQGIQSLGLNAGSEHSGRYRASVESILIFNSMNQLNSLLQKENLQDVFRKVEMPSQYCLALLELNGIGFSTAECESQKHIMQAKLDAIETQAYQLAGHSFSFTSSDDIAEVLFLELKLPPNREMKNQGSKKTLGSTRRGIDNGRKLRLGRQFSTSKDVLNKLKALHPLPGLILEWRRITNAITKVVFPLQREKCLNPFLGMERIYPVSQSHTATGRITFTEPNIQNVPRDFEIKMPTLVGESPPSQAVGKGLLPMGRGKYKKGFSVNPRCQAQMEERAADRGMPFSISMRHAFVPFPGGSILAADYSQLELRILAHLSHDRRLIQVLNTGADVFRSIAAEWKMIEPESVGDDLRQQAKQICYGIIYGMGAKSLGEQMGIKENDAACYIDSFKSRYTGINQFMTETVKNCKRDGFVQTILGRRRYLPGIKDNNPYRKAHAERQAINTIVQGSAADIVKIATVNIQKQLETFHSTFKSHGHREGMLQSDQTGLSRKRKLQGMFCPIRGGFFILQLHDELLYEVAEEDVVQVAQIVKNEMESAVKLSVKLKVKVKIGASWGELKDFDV
Assay: Polθ Polymerase Domain Kinact/KI Assay (PicoGreen)
Type: biochemical
Conditions: 0.8 nM Polθ, 100 nM DNA substrate, kobs vs [I] fit for 2-step covalent inhibitor
Recorded Kinact/Kl by entry
Answer in M⁻¹ s⁻¹, number only, no unit symbol.

Study these solved cases before continuing.
// returns reported Kinact/Kl for input C=CC(=O)N1CC(N2CC[C@@H](CN3C[C@H]4CC(=O)N(c5cc(C(F)(F)F)cc(C)n5)[C@@H]4C(=O)N(C)c4cccc(Cl)c43)[C@H](C#N)C2)C1 (single isomer, unassigned) [Example 226a]
230000

State the recorded Kinact/Kl for this entry: C=CC(=O)N1CC2(CN(CCN3C[C@H]4CC(=O)N(c5cc(C(F)(F)F)cc(C)n5)[C@@H]4C(=O)N(C)c4cccc(C)c43)C[C@H]2C#N)C1 (racemic) [Example 118b]
3.36e+06

// lookup Kinact/Kl for C=CC(=O)N1CC(n2cnc(CN3C[C@H]4CC(=O)N(c5cc(C(F)(F)F)cc(C)n5)[C@@H]4C(=O)N(C)c4cccc(Cl)c43)n2)C1 [Example 42]
790000

Returns the measured Kinact/Kl for the input molecule. Input: C=CC(=O)N1CC(c2nc(CN3C[C@H]4CC(=O)N(c5cc(C(F)(F)F)cc(C)n5)[C@@H]4C(=O)N(C)c4cccc(F)c43)no2)C1 [Example 101]
1.47e+06

I am curious: what Kinact/Kl value has been reported for C/C=C(\CN(C)C)C(=O)N1CC(c2ccc(CN3C[C@H]4CC(=O)N(c5cc(C(F)(F)F)cc(C)n5)[C@@H]4C(=O)N(C)c4cccc(C)c43)cc2)C1 [Example 195] ?
5.22e+06

Next:
Endpoint output: Kinact/Kl of C=CC(=O)N1C[C@@H]2CN(CCN3C[C@H]4CC(=O)N(c5cc(C(F)(F)F)cc(C)n5)[C@@H]4C(=O)N(C)c4cccc(F)c43)CCN2C(=O)[C@@H]1C (single isomer, unassigned) [Example 59] . Value?
1.08e+06

What value of Kinact/Kl has been recorded for this entry: C=CC(=O)N1CC2(CN(CCN3C[C@H]4CC(=O)N(c5cc(C(F)(F)F)cc(C)n5)[C@@H]4C(=O)N(C)c4cccc(F)c43)C[C@H]3COCCN32)C1 (racemic) [Example 24b]
290000
